targetOfAssay: MAPK14 (human) (UniProt Q16539)
Sequence (Q16539 whole entry, looked up): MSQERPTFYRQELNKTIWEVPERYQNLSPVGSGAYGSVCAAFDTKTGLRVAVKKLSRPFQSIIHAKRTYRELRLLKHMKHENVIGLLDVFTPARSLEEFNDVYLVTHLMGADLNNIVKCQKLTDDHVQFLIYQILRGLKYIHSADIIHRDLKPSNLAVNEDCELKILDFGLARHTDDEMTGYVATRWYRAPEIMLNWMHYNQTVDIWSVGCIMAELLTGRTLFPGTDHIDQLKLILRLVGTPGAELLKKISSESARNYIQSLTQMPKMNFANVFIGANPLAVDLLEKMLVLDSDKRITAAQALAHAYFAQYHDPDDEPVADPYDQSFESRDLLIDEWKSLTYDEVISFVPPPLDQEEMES
experimentDescription: Inhibition of LPS Stimulated TNF Production by U937 Cells
reportedConditions: concentration not given here
Classification field: met = inhibition at or over 30%; not met = inhibition under 30%.

Look over these answered cases.
C[C@@H](NC(=O)C(C)(C)C)c1[nH]nc(-c2ccc(F)cc2)c1-c1ccncc1 met
CC(C)=CC(=O)N[C@@H](C)c1[nH]nc(-c2ccc(F)cc2)c1-c1ccncc1 not met
C[C@H](NS(=O)(=O)[C@]12CC[C@@H](CC1=O)C2(C)C)c1[nH]nc(-c2ccc(F)cc2)c1-c1ccncc1 met
CNC(=O)CC[C@H](NC(=O)Cc1cccc(OC)c1)c1[nH]nc(-c2ccc(F)cc2)c1-c1ccncc1 not met
C[C@@H](NC(=O)[C@H]1CCCN1)c1[nH]nc(-c2ccc(F)cc2)c1-c1ccncc1 met

Check if inhibition >= 30% (inclusive). Item: "CCOC(=O)c1cccc(NC(=O)NCc2[nH]nc(-c3ccc(F)cc3)c2-c2ccncc2)c1"
not met

Check if inhibition >= 30% (inclusive). Item: "O=C(N[C@H](Cc1ccccc1)c1[nH]nc(-c2ccc(F)cc2)c1-c1ccncc1)c1ccccc1I"
met
